- MEASUREMENT NOTES: clinical
- CONDITION PARAMETERS: both, human, plasma and urine, po
MEASURED ATTRIBUTE: CL renal
Don't forget the unit after the value.

// query Reported CL renal, molecule Cn1cnc2c(ncn2[C@@H]2O[C@H](CO)[C@@H](O)[C@H]2O)c1=N : ____
// result 68.3 mL/min

###

- MEASUREMENT NOTES: clinical
- CONDITION PARAMETERS: both, human, plasma, po
MEASURED ATTRIBUTE: Cmax (ng/mL)
Your answer should be a plain number; it is taken to be in ng/mL.

// query Entry Cn1cnc2c(ncn2[C@@H]2O[C@H](CO)[C@@H](O)[C@H]2O)c1=N [N1-Methyladenosine, N1-methyladenosine] : reported Cmax = ?
// result 2.6

// query Next up: CN(C)C(=N)N=C(N)N [Metformin]
// result 168

###

- MEASUREMENT NOTES: clinical
- CONDITION PARAMETERS: both, human, plasma, po, 50 mg
MEASURED ATTRIBUTE: Cmax (ng/mL)
Kindly answer with a numeric value in ng/mL, unit omitted.

// query Please give the measured Cmax for this molecule: Cn1cnc2c(ncn2[C@@H]2O[C@H](CO)[C@@H](O)[C@H]2O)c1=N
// result 2.6

// query What do we get for CN(C)C(=N)N=C(N)N ?
// result 124
